# Tgt: T1, human MICA allele MICA*008 (human, UniProt Q29983 24-297)
# T1 construct: Expressed on transfected C1R cells; also called MICA*08; C1R-MICA*008
# T1 chain: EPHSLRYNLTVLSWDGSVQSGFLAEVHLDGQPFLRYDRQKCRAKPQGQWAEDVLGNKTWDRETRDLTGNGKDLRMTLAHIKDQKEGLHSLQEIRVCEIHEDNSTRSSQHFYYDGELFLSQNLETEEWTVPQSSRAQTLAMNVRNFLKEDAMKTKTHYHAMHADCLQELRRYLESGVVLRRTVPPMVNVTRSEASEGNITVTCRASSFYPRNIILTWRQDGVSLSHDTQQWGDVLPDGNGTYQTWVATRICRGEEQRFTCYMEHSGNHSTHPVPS
# Assay Info: flow cytometry, C1R-MICA*008 transfectant cells
# Protocol: The binding of the antibodies in Table 2 of Example 1 were tested for binding to MICA-expressing C1R transfectant cells (ATCC reference CRL-1993™) transfected with RSV.5neo vectors (GenBank (NCBI) under Accession number M83237), as described in Salih et al. (2003) Blood 102(4): […], referred to as C1R-MICA*001, C1R-MICA*004, C1R-MICA*007 and C1R-MICA*008. Binding was analyzed by flow cytometry. […]

[
  {
    "Binder": "mAb3 (antibody, V domains shown, Produced in CHO cells as human IgG1 with huCk constant domain) VH: QVQLQESGPGLVKPSETLSLTCTVSGYSITSDYAWNWIRQPPGKGLEWIGFVSYSGTTKYNPSLKSRVTISRDTSKNQFSLKLSSVTAADTAVYYCARGYGFDYWGQGTTVTVSS VL: EIVLTQSPATLSLSPGERATLSCSATSSISSIYFHWYQQKPGQAPRLLIYRTSNLASGIPARFSGSGSGTDYTLTISSLEPEDVAVYYCQQGTTIPFTFGQGTKLEIK",
    "Endpoint Unit": "µg/mL",
    "EC50": 0.0822
  }
]
